Reported relative cell viability values for the following molecules.
# Tested on: Hep3B
# protocol_summary: relative cell viability (CellTiter-Glo), compound alone (fraction); higher = more viable cells (less growth inhibition)
# condition_parameters: cabozantinib 0 µM; 4 days
Structures can show the parent of a compound that is named as a salt. Whole data set: some 1,900 compounds, median “relative cell viability (CellTiter-Glo), compound alone” near 1, cut for the lowest 2% near 0.16. For the sample, the lowest values were picked, then their nearest neighbours and some compounds at random.
Give only the figure.

Before answering, review these 2 worked examples.
Task item: # input molecule: CN1CC[C@H](c2c(O)cc(O)c3c(=O)cc(-c4ccccc4Cl)oc23)[C@H](O)C1 [Flavopiridol (Alvocidib)] ; wanted: its relative cell viability
Reply: 0.143

Task item: # input molecule: Cc1[nH]nc2ccc(-c3cncc(OC[C@@H](N)Cc4ccccc4)c3)cc12 ; wanted: its relative cell viability
Reply: 0.123

More entries:
Task item: Item under review: CCc1c(O)cc(O)c(C(=O)c2ccc(OCCN3CCOCC3)c(OC)c2)c1CC(=O)N(CCOC)CCOC . Reported relative cell viability?
Reply: 0.48

Task item: Looking for the measured relative cell viability of CC1=C(C(=O)OC2CCCCC2)C(c2ccc([N+](=O)[O-])cc2)C2=C(CC(C)(C)CC2=O)N1 (stereo not drawn) , can you help?
Reply: 1.19

Task item: // relative cell viability lookup, key: O=C(NC1CC1)c1cc(-c2cccs2)on1
Reply: 1.13

Task item: Given the molecule O=C(/C=C/c1ccc2ccccc2n1)c1ccncc1 , what is its reported relative cell viability?
Reply: 0.167

Task item: Query: relative cell viability; subject: FC(F)(F)Oc1ccc2nc(-c3ccc(OCCOCCOc4ccc(-c5nc6ccc(OC(F)(F)F)cc6[nH]5)nc4)cn3)[nH]c2c1
Reply: 0.708

Task item: Reported relative cell viability for CN1CC[C@H](c2c(O)cc(O)c3c(=O)cc(-c4ccccc4Cl)oc23)[C@H](O)C1 [Flavopiridol HCl] : what is it?
Reply: 0.183

###

# System: Hep3B
# protocol_summary: relative cell viability (CellTiter-Glo), compound alone (fraction); higher = more viable cells (less growth inhibition)
# condition_parameters: cabozantinib 0 µM; 4 days
Counter-ions that a name gives are not always drawn. In all, about 1,900 compounds were measured (“relative cell viability (CellTiter-Glo), compound alone”: median about 1, lowest 2% from about 0.16 on). Many of the other results were omitted from the sample, so the lowest values are more common in it than they were.
Catalogue of relative cell viability values
Give only the figure.

Task item: Give recorded relative cell viability with Hep3B for the following molecule: CC/C(=C(\c1ccccc1)c1ccc(OCCN(C)C)cc1)c1ccccc1 [Tamoxifen Citrate]
Reply: 1.26

Task item: Write down the reported relative cell viability of CNC(=O)c1ccccc1Nc1nc(Nc2ccc(N3CCOCC3)cc2OC)ncc1Cl , test system: Hep3B.
Reply: 0.273

Task item: // map O=C(O)c1ccccc1 to recorded relative cell viability (system: Hep3B)
Reply: 1.26

Others:
Task item: Under Hep3B: relative cell viability value of CN(NC(=O)CC(=O)NN(C)C(=S)c1ccccc1)C(=S)c1ccccc1 [Elesclomol (STA-4783)] ?
Reply: 0.0115

Task item: Please state recorded relative cell viability (tested on Hep3B) of O=C(O)CCNC(=O)c1ccccc1
Reply: 0.9

###

# System: Hep3B
# protocol_summary: relative cell viability (CellTiter-Glo), compound alone (fraction); higher = more viable cells (less growth inhibition)
# condition_parameters: cabozantinib 0 µM; 4 days
Over roughly 1,900 compounds, “relative cell viability (CellTiter-Glo), compound alone” has its median near 1; the lowest 2% begin near 0.16. This excerpt belongs to a sample that is enriched for the lowest values.
test_readout: relative cell viability
Number, no unit, nothing else.

Task item: If you can, please state the reported relative cell viability value of C=CC(=O)Nc1ccc2ncnc(Nc3ccc(OCc4cccc(F)c4)c(Cl)c3)c2c1 .
Reply: 1.41

Task item: Give its relative cell viability value. Item: CN1CCN(c2ccc3nc(-c4c(N)c5c(F)cccc5[nH]c4=O)[nH]c3c2)CC1 [Dovitinib (TKI258) Lactate]
Reply: 0.67

Task item: Name the recorded relative cell viability for C[C@@H](Oc1cc(-n2cnc3ccc(CN4CCN(C)CC4)cc32)sc1C(N)=O)c1ccccc1C(F)(F)F .
Reply: 0.668

Task item: # query: relative cell viability of entry Cc1nc(C#Cc2ccnc(Cl)c2)c(C)n1-c1ccc(OC(F)(F)F)cc1
Reply: 1
